Reported solubility kinetic values follow for various molecules
Experiment: Kinetic aqueous solubility
Type: physicochemical
Details: aqueous solution, pH 7.4
Record the value in µM, omitting the unit from your answer.

// solved cases for solubility kinetic follow
structure_as_smiles=CC(=O)N[C@H]1[C@H](Oc2cccc(C)c2-c2cccc(NS(C)(=O)=O)c2)O[C@H](CO)[C@H](O)[C@@H]1O measure_name="solubility kinetic" test_value=195
structure_as_smiles=CC(=O)N[C@H]1[C@H](Oc2cccc(F)c2-c2cccc(NS(C)(=O)=O)c2)O[C@H](CO)[C@H](O)[C@@H]1O measure_name="solubility kinetic" test_value=197

Look at this molecule and give its reported solubility kinetic. "CC(=O)N[C@H]1[C@H](Oc2cccc(C)c2-c2cccc(NS(=O)(=O)C3CC3)c2)O[C@H](CO)[C@H](O)[C@@H]1O"
196
